# maps each entry to its Dmax
- studySystem: HPK1 (Homo sapiens, UniProt Q92918)
- Construct: A HiBiT tag was introduced by CRISPR on the N terminus of HPK1 in Jurkat cells; host or cells: Jurkat cells (ATCC TIB-152), monoclonal line with CRISPR knock-in of HiBiT at the endogenous HPK1 locus
- Sequence (Q92918 whole entry): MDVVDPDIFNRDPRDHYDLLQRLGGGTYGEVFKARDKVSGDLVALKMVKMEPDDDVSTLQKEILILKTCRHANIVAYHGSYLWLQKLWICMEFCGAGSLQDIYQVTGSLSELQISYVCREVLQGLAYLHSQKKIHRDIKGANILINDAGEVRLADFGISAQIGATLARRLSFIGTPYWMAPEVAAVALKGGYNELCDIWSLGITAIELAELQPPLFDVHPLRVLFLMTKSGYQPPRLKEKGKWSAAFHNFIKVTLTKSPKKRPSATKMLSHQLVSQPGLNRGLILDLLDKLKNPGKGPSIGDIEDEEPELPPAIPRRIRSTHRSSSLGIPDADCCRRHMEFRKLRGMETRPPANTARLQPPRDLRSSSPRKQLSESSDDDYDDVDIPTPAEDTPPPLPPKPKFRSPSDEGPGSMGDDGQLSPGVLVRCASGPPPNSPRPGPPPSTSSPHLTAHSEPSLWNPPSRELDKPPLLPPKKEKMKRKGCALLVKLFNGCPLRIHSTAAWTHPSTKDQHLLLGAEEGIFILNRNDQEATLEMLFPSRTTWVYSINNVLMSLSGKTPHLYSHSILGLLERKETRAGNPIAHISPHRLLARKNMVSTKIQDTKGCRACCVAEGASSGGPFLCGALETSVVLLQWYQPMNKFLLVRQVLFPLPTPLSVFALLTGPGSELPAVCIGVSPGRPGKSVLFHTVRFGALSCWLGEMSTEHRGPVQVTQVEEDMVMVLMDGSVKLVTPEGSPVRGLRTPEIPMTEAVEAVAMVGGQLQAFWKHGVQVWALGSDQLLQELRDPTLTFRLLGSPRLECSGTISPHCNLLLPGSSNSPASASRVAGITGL
- testProtocol: HPK1 Cellular HiBit Degradation Assay
- Assay type: cell-based
- experimentalConditions: Jurkat, HiBiT HPK1 Jurkat cells, 24 hrs; maximum degradation vs DMSO vehicle control; read-out: Dmax Category

molecule: CC(C)n1cnc2cc(-c3ccc4c(c3)N([C@H]3C[C@@H](N5CCCCC5)C3)C(=O)C43CCN(C(=O)C4CCN(C(=O)[C@H]5CCN(c6ccc(C7CCC(=O)NC7=O)cn6)C5)CC4)CC3)nc(Nc3ccccc3F)c21 (mixture of isomers)
experimentalResult: 70 to 85%
--
molecule: CC(C)n1cnc2cc(-c3ccc4c(c3)N([C@H]3C[C@@H](N5CCCCC5)C3)C(=O)C43CCN(C(=O)c4ccc(C(=O)N5CCC(N(C)c6ccc(C7CCC(=O)NC7=O)cn6)CC5)cc4)CC3)nc(Nc3ccccc3F)c21 (mixture of isomers)
experimentalResult: 50 to 70%
--
molecule: CC(C)n1cnc2cc(-c3ccc4c(c3)N([C@H]3C[C@@H](N5CCCCC5)C3)C(=O)C43CCN(C(=O)C4CCN(C(=O)[C@H]5CC[C@H](C(=O)N6CCCc7cc(C8CCC(=O)NC8=O)ccc76)CC5)CC4)CC3)nc(Nc3ccccc3F)c21 (mixture of isomers)
experimentalResult: 70 to 85%
--
molecule: CC(C)n1cnc2cc(-c3ccc4c(c3)N([C@H]3C[C@@H](N5CCCCC5)C3)C(=O)C43CCN(C(=O)C4(C)CCN(C(=O)C5CCN(c6ccc(C7CCC(=O)NC7=O)nc6)CC5)CC4)CC3)nc(NC3CC3)c21 (mixture of isomers)
experimentalResult: 50 to 70%

Query :: If you can, please state the reported Dmax value of CC(C)n1cnc2cc(-c3ccc4c(c3)N([C@H]3C[C@@H](N5CCCCC5)C3)C(=O)C43CCN(C(=O)[C@@H]4CCN(C(=O)[C@H]5CC[C@H](Nc6ccc(C7CCC(=O)NC7=O)cc6)CC5)C4)CC3)nc(Nc3ccncc3F)c21 (some centres unmarked) .
Result :: > 85%

Query :: Name the reported Dmax value associated with the molecule CC(C)n1cnc2cc(-c3ccc4c(c3)N([C@H]3C[C@@H](N5CCCCC5)C3)C(=O)C43CCN(C(=O)[C@H]4CC[C@H](CNC(=O)C5CCN(c6ccc(C7CCC(=O)NC7=O)cn6)CC5)CC4)CC3)nc(NC3CC3)c21 (mixture of isomers)
Result :: 70 to 85%

Query :: Need Dmax of CC(C)n1cnc2cc(-c3ccc4c(c3)N([C@H]3C[C@@H](N5CCCCC5)C3)C(=O)C43CCN(C(=O)[C@@H]4CCN(C(=O)[C@H]5CC[C@H](N(C)c6ccc(C7CCC(=O)NC7=O)cn6)CC5)C4)CC3)nc(NC3CC3)c21 (mixture of isomers) , thanks.
Result :: > 85%

Query :: Look at this molecule and give its reported Dmax. CC(C)n1cnc2cc(-c3ccc4c(c3)N([C@H]3C[C@@H](N5CCCCC5)C3)C(=O)C43CCN(C(=O)C4(C)CCN(C(=O)C5CCN(c6ccc(C7CCC(=O)NC7=O)cn6)CC5)CC4)CC3)nc(N(C)C3CC3)c21 (some centres unmarked)
Result :: 70 to 85%
